Source listed as the supplement of paper PMC10567573.

B1: ZNF449 (parent)
chain: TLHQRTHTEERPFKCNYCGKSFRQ

variants of: B1; experiment: protein stability index of a GFP-peptide fusion (GPS, HEK-293T) (PSI 1-6); higher = more stable; conditions: c terminus: a fixed tail appended;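 further: lentivirally expressed fusions sorted by FACS into six bins by GFP to DsRed ratio, PSI derived from sequencing read proportions per bin multiplied by bin number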
Use 1 when the recorded protein stability index is no lower than 2; use 0 when it is lower.

Example results:
TLHQRTHTEERPMKCNYCGKSFRQ = 1
TRHQRTHTEERPFKCNYCGKSFRQ = 1
TLHQRTHTEEQPFKCNYCGKSFRQ = 1
TLHQGTHTEERPFKCNYCGKSFRQ = 0
TLHQRTHTEERPFKCNYCGKSFRV = 0
TLHQRTHTEERPFKANYCGKSFRQ = 1

Qu. Given TLHQRTHTPERPFKCNYCGKSFRQ , state whether its protein stability index is at least 2.
Ans. 0

Qu. Input TLHQRTHTEERPFKCNYIGKSFRQ
Ans. 1

Qu. Input TLHQRTHTEEFPFKCNYCGKSFRQ
Ans. 0

Qu. Input TLHQRTHTEERAFKCNYCGKSFRQ
Ans. 1

Qu. Input TLHERTHTEERPFKCNYCGKSFRQ
Ans. 1

Qu. Input QLHQRTHTEERPFKCNYCGKSFRQ
Ans. 1

Qu. Input TLHQRTHTEERPFCCNYCGKSFRQ
Ans. 1

Qu. Input TLHQRTHQEERPFKCNYCGKSFRQ
Ans. 1

Qu. Input TLHQRTHTEERPFKCNYCAKSFRQ
Ans. 1

Qu. Input TLLQRTHTEERPFKCNYCGKSFRQ
Ans. 0
